apparent Kd overview
- System: MS2 coat protein
- Test name: apparent Kd, MS2 coat protein; higher = weaker binding; RNA-MaP array; theophylline 2 mM where present
- Run parameters: ligand present: theophylline; designed as: ON switch for theophylline
Recorded metric: apparent Kd (nM)

Query sequence: AUCGUACCUGAUGAUACCAGCAAGUGAUCAUAACAUGAGGAUCACCCAUGUAAUCAGUGAUGCCCUUGGCAGCAUAGUCGAUACA
Reported measurement: 99.8
--
Query sequence: CAUGGGUGGGUGCUGCCACCCAUUGGUGAUACCAGCAUCGAAAGAUGCCCUUGGCAGCACCAACAUGAGGAUCACCCAUGUAAUA
Reported measurement: 320
--
Query sequence: CCUGCGUUUCUUUUCUUUCGCAGGAAUGAUACCAGUAGGGAAACCUACCCUUGGCAGCAUGGGACAUGAGGAUCACCCAUGUUAU
Reported measurement: 55.1
--
Query sequence: UGUUUGGUGCGCGAGUGUUGGAUAAUUGAUACCAGUGUAGAAGUGCGCCCUUGGCAGCGAAUCCUAACAUGAGGAUCACCCAUGU
Reported measurement: 57.8
--
Query sequence: ACAUGAGGAUCACCCAUGUCAAGGCACGAUACCAGCUGAUCCGGUGGCCCUUGGCAGCGUCACGUUUGGUCCCGCGGAUGACACG
Reported measurement: 108
--
Query sequence: AAUAACAUGAGGAUCACCCAUGUAAAAGAUACCAGAUGCAUGAUGAUCCCUUGGCAGCUUAAAACGCGAUUGAUUACAAUCGCGA
Reported measurement: 107
--
Query sequence: UAACAUGAGGAUCACCCAUGUAUAGUCGAUACCAGCUCAAGGGAGAGCCCUUGGCAGCGACACUGGUAUCCAUGGGUGUGGAUAC
Reported measurement: 81.3
--
Query sequence: UUCUACAUGAGGAUCACCCAUGUGGGUGAUACCAGCACUUUUUGGUGCCCUUGGCAGCACAUGAGAAUACCGUACGAUCGGCGAU
Reported measurement: 700
--
Query sequence: AAUAAUCUAGGUGAUACCAGCUCAACAUGAGGAUCACCCAUGUACUCAUGUAGAGUUGAGAGCCCUUGGCAGCACCUAGAUAAUA
Reported measurement: 74.9
--
Query sequence: ACUCUGUCGGGUGAUACCAGCCUCGGCACAUCUCGCGCCGAACAUGAGGAUCACCCAUGUGGCCCUUGGCAGCACAUGACAAAUC
Reported measurement: 83.1
--
Query sequence: AUUCAUAAUUGGGUAAAUGGAUAGAGUGAUACCAGUCAUAUACAUGACCCUUGGCAGCACAAGGACAUGAGGAUCACCCAUGUCA
Reported measurement: 16.3
--
Query sequence: AAUUUGUCGGGUGAUACCAGCCUCGGCGCAUCUCGCGCUGAACAUGAGGAUCACCCAUGUGGCCCUUGGCAGCACAUGACAAAUC
Reported measurement: 37.3
--
Query sequence: ACAUGAGGAUCACCCAUGUCUGCCUCGGAUACCAGCGGAAGAAAACGCCCUUGGCAGCCGAACAUGAGGAUCACCCAUGUAGGCU
Reported measurement: 56.8
--
Query sequence: GAUCUGUCGGGUGAUACCAGCCUCGGCGCGUCUCGCGCUGAACAUGAGGAUCACCCAUGUGGCCCUUGGCAGCACAUGACAAAUC
Reported measurement: 44.2
--
Query sequence: AUGUCGUUGAAUAUAGCGGCUUGGUGUGAUACCAGAAUGAUCUAAUUCCCUUGGCAGCAUUACAUGAGGAUCACCCAUGUUUAGG
Reported measurement: 29.2
--
Query sequence: UUAGAUAUGACAGAUACCAGCGUGUUGUAGAACAUGAGGAUCACCCAUGUAGUGAUCAAGCGCCCUUGGCAGCUGGUAUGUUUGG
Reported measurement: 221
--
Query sequence: AUCGUACCUGGUGAUACCAGCAAGUGAUUAUAACAUGAGGAUCACCCAUGUAAUCAGUGAUGCCCUUGGCAGCAUAAUCGGUACA
Reported measurement: 21.3
--
Query sequence: AGUACUCGAACGGAUACCAGCCGGACAUGAGGAUCACCCAUGUCCUACCAUGUCUCGGUUGGCCCUUGGCAGCCGUUCGUGUACA
Reported measurement: 234
--
Query sequence: UUAGAUAUGACAGAUACCAGCGUGUUAUAAAACAUGAGGAUCACCCAUGUAGUGAUCGAGCGCCCUUGGCAGCUGGUGUGUUUGG
Reported measurement: 208
--
Query sequence: ACAUGAGGAUCACCCAUGUCUGCCACUGAUACCAGCGGAAGCCCACGCCCUUGGCAGCAGAACAUGAGGAUCACCCAUGUAGGCU
Reported measurement: 198
--
Query sequence: ACAUGAGGAUCACCCAUGUAGUGGCACGAUACCAGCUGAUCCCGUGGCCCUUGGCAGCGUCCGGUGUGGUGCGCCGGGUUGGAGC
Reported measurement: 61.7
--
Query sequence: ACAUUAGUUGGCGAUACCAGCUAUAGGCCUUCUGGGCGACAUGAGGAUCACCCAUGUGAUGGCCCUUGGCAGCGCUGAUUGAUGU
Reported measurement: 41.4
--
Query sequence: UCGUGUGUUUCGGAUACCAGUGUGGUCGAUACAUGAGGAUCACCCAUGUUAGAGGAGGUACACCCUUGGCAGCCGGCUGUUGCGG
Reported measurement: 51.1
--
Query sequence: CGAACAAAACUAAAUAAACAACUGGGUGAUACCAGUACAUGUGCGUACCCUUGGCAGCAUCCGGCCACAUGAGGAUCACCCAUGU
Reported measurement: 119
--
Query sequence: AGCAUGUUAGCAGAUACCAGACGUUUUAUGAUCCAUGUAACAUGAGGAUCACCCAUGUAAGUCCCUUGGCAGCUGAAAUAAUGCA
Reported measurement: 301
--
Query sequence: AGAUUACAUGUUUUAAUACGGAAAACUGAUACCAGUGUAUCUAUUCACCCUUGGCAGCAGCAACAUGAGGAUCACCCAUGUAUUA
Reported measurement: 19.2
--
Query sequence: CAUACUUUAGUAUGUUAUGUGGACAGUGAUACCAGAUACGAAAGUAUCCCUUGGCAGCACAACAUGAGGAUCACCCAUGUAUUUU
Reported measurement: 13.6
--
Query sequence: CGAAUACGAAUUGAUACCAGCAUGUUAACAUGAGGAUCACCCAUGUUAAGGAUAACAUAAUGCCCUUGGCAGCAACGUAAAUUCG
Reported measurement: 13.4

* * *

- Test system: MS2 coat protein
- Test name: apparent Kd, MS2 coat protein; higher = weaker binding; RNA-MaP array
- Run parameters: designed as: OFF switch for flavin mononucleotide; no ligand
apparent Kd overview
Recorded metric: apparent Kd

Query sequence: AAUACACAUGAGGAUCACCCAUGUAAGGAUAUCAAGCAUCAAACAUUAGAGUGAGGAGUGAGAAGGUACAUCAC
Reported measurement: 20.1 nM
--
Query sequence: CCGCCUCGCGUCAGGAUAUGUAACAAUUGUCAAAUACAGAAGGGACAUGAGGAUCACCCAUGUUUACAUACCAA
Reported measurement: 18 nM
--
Query sequence: CAAAUGUGCACUCGUGAUACAUGAGGAUCACCCAUGUCAACUAAGGAUAUCUGGAAGUCACAUCGAGAGAAGGUAGCGUACCCU
Reported measurement: 10.5 nM
--
Query sequence: GAUAGGUGAGGAUAUGUGAGUGAUCACAUGAGGAUCACCCAUGUUGACUCAUGUUGGCUUACAGAAGGCACAGGAA
Reported measurement: 137 nM
--
Query sequence: GUCGCAUGAGGAUAUACAUGAGGAUCACCCAUGUAUCUACGCAUGGGAAGACACCAAUGUAGAAGGCAUCUCAA
Reported measurement: 64.2 nM
--
Query sequence: GUACCUCAAGGAUAUGCCCGAUCUUACAUGAGGAUCACCCAUGUUGGCUCAGGGCUUAGGGCAGAAGGUGAGAAGU
Reported measurement: 6.38 nM
--
Query sequence: GUCGGUGCAGGAUAUCGAGGCGCCAACAUGAGGAUCACCCAUGUGUGUGAUCGGGUGCACCGAGAAGGGCACUUGC
Reported measurement: 110 nM
--
Query sequence: CUCUACAUGAGGAUCACCCAUGUAUUAAUACAACUGGGUGCUAGAAGGUGCACUUAAGAAUAGGGCAAGGAUAUAGACCGUUCA
Reported measurement: 158 nM
--
Query sequence: UCGACAUCAGGAUAUACGAUGGAGUAGUUACGAGUAUCACGACAUGAGGAUCACCCAUGUAGAAGGGAUCGUCC
Reported measurement: 21.4 nM
--
Query sequence: GCCCUGUGACUAGGAUAUGCCGGGAAACACAUCGCAGAAGGAGUCCACUCAUGUCGACAUGAGGAUCACCCAUGUACCAGGGUU
Reported measurement: 40.6 nM
--
Query sequence: ACUUCAGAUACAGGAUAUAGCGUAACAUGAGGAUCACCCAUGUCUUGAUGCCUCUGUCGCGACGACUAGAAGGGUAAGCUUUGA
Reported measurement: 91.6 nM
--
Query sequence: UAGCGACAUGAGGAUCACCCAUGUGAGGAUAUGAAGUCUAUAACACAAGCUAAUGAAGACAGAAGGCACAUGAG
Reported measurement: 66.8 nM
--
Query sequence: UAUCGGGCAGGAUAUACAUGCGAUUACACUCUUCGGAAAGUACAUGAGGAUCACCCAUGUAGAAGGGCCAAGUG
Reported measurement: 10.4 nM
--
Query sequence: ACAUCCACCAAGAAGGCUGGUGCGGCACUUAAGUCGUUCACAUGAGGAUCACCCAUGUCGUAUACAGAGGAUAUUGAGGUUUUC
Reported measurement: 39.1 nM
--
Query sequence: CGUCUGUGAGGAUAUGGUCGAGGUUGGUGAAUUACUUACAUCCAGAAGGCACAUGAGGAUCACCCAUGUACAUC
Reported measurement: 10.5 nM
